- PROTOCOL_TEXT: Progesterone plasma levels after intramuscular-type injection of injectable aqueous suspension of progesterone particles
- Assay type: in vivo, post-menopausal women
- EXPERIMENTAL_CONTEXT: female, human, humans, across the dosing schemes (100-300 mg, single or repeated injection), read-out: maximum plasma concentrations (Cmax)
REPORTED_METRIC: Cmax

- QUERY_SMILES: "CC(=O)[C@H]1CC[C@H]2[C@@H]3CCC4=CC(=O)CC[C@]4(C)[C@H]3CC[C@]12C"
  REPORTED_METRIC: "Cmax"
  REPORTED_VALUE: "12 to 42 ng/mL"

Where do these numbers come from? They come from patent US20110104289A1.
